# assayed-system: T1, human BR3 extracellular domain (human, UniProt Q96RJ3 1-61)
# T1 construct: biotinylated where used as tracer; also called hBR3-ECD; BR3-ECD
# assay-info: phage competition ELISA
outcome-measure: IC50 (nM)

>>> result("V3-46s-31 phage clone (Fab, V domains shown) VH: EVQLVESGGGLVQPGGSLRLSCAASGFTISSSSIHWVRQAPGKGLEWVAWVLPSVGFTDYADSVKGRFTISADTSKNTAYLQMNSLRAEDTAVYYCARRVCYNRLGVCAGGMDYWGQGTLVTVSS VL: DIQMTQSPSSLSASVGDRVTITCRASQDIATSVAWYQQKPGKAPKLLIFAASYLFSGVPSRFSGSGSGTDFTLTISSLQPEDFATYYCQQSQVSPPTFGQGTKVEIK")
0.12
>>> result("V3-46s-29 phage clone (Fab, V domains shown) VH: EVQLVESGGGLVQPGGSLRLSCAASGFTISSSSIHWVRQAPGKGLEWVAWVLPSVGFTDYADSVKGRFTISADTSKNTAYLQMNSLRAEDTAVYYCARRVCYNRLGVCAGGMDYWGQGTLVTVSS VL: DIQMTQSPSSLSASVGDRVTITCRASEEIATAVAWYQQKPGKAPKLLIFAASFLYSGVPSRFSGSGSGTDFTLTISSLQPEDFATYYCQQSEVSPPTFGQGTKVEIK")
0.08
>>> result("V3-46s-34 phage clone (Fab, V domains shown) VH: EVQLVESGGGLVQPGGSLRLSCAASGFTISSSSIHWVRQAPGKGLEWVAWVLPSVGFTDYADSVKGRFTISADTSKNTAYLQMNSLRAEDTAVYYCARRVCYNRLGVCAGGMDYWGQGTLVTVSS VL: DIQMTQSPSSLSASVGDRVTITCRASEDISSAVAWYQQKPGKAPKLLIFSASFLFSGVPSRFSGSGSGTDFTLTISSLQPEDFATYYCQQSQVSPPTFGQGTKVEIK")
0.058
